target: DCLK3 (human); assay: KINOMEscan competition binding; conditions: compound 10.0 µM

compound	kinase still bound, per cent of control / %
C=CC(=O)Nc1ccc(C(=O)c2sc(Nc3ccc(N4CCN(C)CC4)cc3OC)nc2N)cc1	3.8
CCOc1cc(N2CCC(O)CC2)ccc1Nc1ncc2c(n1)N(C)c1ccccc1C(=O)N2C	100
COc1ccc(N(C(=O)Oc2cc(C(=O)Nc3cccc(C(F)(F)F)c3)ccc2C)c2ccnc(Nc3ccc(N4CCN(C)CC4)cc3)n2)c(OC)c1	100
N#Cc1cc(-c2ccnc(Nc3ccc(-n4cnc(-c5cccnc5)n4)cc3)n2)cc(N2CCOCC2)c1	100
COc1cc2ncnc(Nc3cccc(Cl)c3)c2cc1OC	52
CC(=O)c1c(C)c2cnc(Nc3ccc(N4CCNCC4)cn3)nc2n(C2CCCC2)c1=O	9.6
CCCS(=O)(=O)Nc1ccc(F)c(C(=O)c2c[nH]c3ncc(Cl)cc23)c1F	26
CCc1nc(-c2cccc(C)c2)c(-c2ccnc(NC(=O)c3ccccc3)c2)s1	90
COc1cc(C)c(Sc2cnc(NC(=O)c3ccc(CNC(C)C(C)C)cc3)s2)cc1C(=O)N1CCN(C(C)=O)CC1 (centres undefined)	4.2

Data origin, for the record: the kinase profiling compilation of Christmann-Franck et al. (2016)
